Target: human CLDN18.2 (human)
Assay: cell-based or functional assay
attribute.measured: ADCC EC50, HEK293T-hCLDN18.2 target cells, human PBMC effectors (µg/mL)
The answer is to be given in µg/mL; state only the numeric part.

Here are 4 binders together with their reported answers.
binder	test.result
44F7-chIgG1 (antibody, V domains shown, human-mouse chimeric antibody, human IgG1/kappa constant regions; also called parental chimeric antibody) VH: QVQLQQSGAELVRPGASVKMSCKASGYTFTSYNMHWVKQAPRQGLEWIGTIYPGNGDTSYNQKFKGKATLTVDKSSSTAYMQLSSLTSEDSAVYFCARGGYYGNSLDYWGQGTTLTVSS VL: DIQMTQSPSSLTVTAGEKVTMSCKSSQSLLNSGNQKNYLTWYQQKPGQPPKLLIYWASTRESGVPDRFTGSGSGTDFTLTISSVQAEDLAVYYCQNAYYYPFTFGSGTKLEIKR	0.0078
5F9-chIgG1 (antibody, V domains shown, human-mouse chimeric antibody, human IgG1/kappa constant regions) VH: QVQLQQSGAELVKPGASVKLSCKASGYTFTSYWMHWVKQRPGQGLEWIGMIHPNSVSTNYNEKFKSKATLTVDKSSSTAYMQLSSLTSEDSAVYYCAVYFDYWGQGTTLTVSS VL: DIQVTQSPSSLSASLGERVSLTCRASQDIGSSLNWLQQEPDGTIKRLIYASSSLNSGVPKRFSVSRSGSDYSLTISSLESEDFVDYYCLQYATSPPTFGGGTKLEIKR	0.0197
10B11-chIgG1 (antibody, V domains shown, human-mouse chimeric antibody, human IgG1/kappa constant regions) VH: QVQMKESGAELVKPGASVKISCKASGYAFSTYWMDWVKQRPGKGLEWIGQIYPGNGDTNYNGKFKGKATLTADKSSSTADMQLSSLTSEDSAVYFCARLGYGNSFTYWGQGTLVTVSA VL: DIQVTQSPSSLTVTAGEKVTMSCKSSQSLLNSGNQKNYLTWYQQKPGQPPKLLIYWASTRESGVPDRFTGSGFGTDFTLTISSVQAEDLAVYYCQNAYFYPFTFGSGTKLEIKR	0.001
44A8-chIgG1 (antibody, V domains shown, human-mouse chimeric antibody, human IgG1/kappa constant regions) VH: EVRLQQSGPELVKPGASVKMSCKASGYTFTDYNMHWVKQSHGKSLEWIGYINPKNGGIRYNQKFTGKATLTVNKSSSTAYMELRSLTSEDSAVYYCARGGYYGNTLDNWGQGTSVTVSS VL: DIVMTQSPSSLTLTAGEKVTMSCKSSQSLLNSGNQKNYLTWYQQKPGQPPKLLIYWASTSESGVPDRFTGSGSGTDFTLTISSVQAEDLAIYYCQNAYFYPWTFGGGTKLEIKR	0.0156

Here is another binder to look at.
stdin: Input 37B1-chIgG1 (antibody, V domains shown, human-mouse chimeric antibody, human IgG1/kappa constant regions) VH: EVRLQQSGPELVKPGASVKMSCKASGYSFTDYNMHWVKQSHGKSPEWVGYINPNKGGTGYNQKFKGKATLTVNKSSSTANMELRSLTSEDSAVYYCARIWYGNSFAYWGQGTLVTVSA VL: DVVMTQSPSSLTVTAGEKVTMSCKSSQSLLNSGNQKNYLTWYQQKPGQPPKLLIYWASTRESGVPDRFTGSGSGTDFTLTISSVQAEDLAVYFCQNDYFYPFTFGSGTKLEIKR , output reported ADCC EC50, HEK293T-hCLDN18.2 target cells, human PBMC effectors.
stdout: 0.0126

Ref: patent US20210403552A1
